Tested on: MCF-7 cells
Assay: In vitro cytotoxicity assessment, alamar blue assay, 24-h exposure
Type: cell-based, human
Details: Homo sapiens, MCF7; MCF-7, 24-h exposure, 50% reduction in metabolic activity, mean ± SD (N = 3); read-out: Cytotoxic activity IC50 ± SD
endpoint-name: IC50
Kindly report the value followed by its unit.

Entry c1cnc2c(c1)ccc1cccnc12 [Phen, 1,10-Phenanthroline] , tested on MCF-7 cells, has a reported IC50 of 33.2 µM

---

System: MCF-12A cells
Assay: In vitro cytotoxicity assessment, alamar blue assay, 24-h exposure
Assay type: cell-based, human
endpoint-name: pIC50
One number for each entry, as −log10 of the molar value.

Case O=C([O-])CCCCCCC(=O)[O-].[Cu+2].[Cu+2].[O-][Cl+3]([O-])([O-])[O-].[O-][Cl+3]([O-])([O-])[O-].c1cnc2c(c1)ccc1cccnc12.c1cnc2c(c1)ccc1cccnc12.c1cnc2c(c1)ccc1cccnc12.c1cnc2c(c1)ccc1cccnc12 [Complex 1, [Cu2(oda)(phen)4](ClO4)2] , MCF-12A cells, pIC50 recorded as 5.21

---

Can you tell me IC25 calculated per one metal centre for the items I'm about to list?
Tested on: MCF-12A cells
Test: In vitro cytotoxicity assessment, alamar blue assay, 24-h exposure
Type: cell-based, human
Details: MCF-12A, 24-hour exposure, per one metal centre, mean ± S.D. (N=3)
One number for each entry, in µM.

Quick batch: IC25 calculated per one metal centre for everything below.
1. O=C([O-])CCCCCCC(=O)[O-].[Ag+].[Ag+].c1cnc2c(c1)ccc1cccnc12.c1cnc2c(c1)ccc1cccnc12.c1cnc2c(c1)ccc1cccnc12 [Complex 4, [Ag2(oda)(phen)3]]
2. O=C([O-])CCCCCCC(=O)[O-].[Ag+].[Ag+] [Complex 6, [Ag2(oda)]]

1. 9.82
2. 12.86

---

Test: In vitro cytotoxicity assessment, alamar blue assay, 24-h exposure
Type: cell-based, human
Conditions: human, MCF-12A cells; MCF-12A, 24-h exposure, 50% reduction in metabolic activity, mean ± SD (N = 3); read-out: Cytotoxic activity IC50 ± SD
endpoint-name: IC50 at 24 h
Show the value, then the unit it is measured in.

Looking up "c1cnc2c(c1)ccc1cccnc12" , I found its IC50 at 24 h recorded as 20.9 µM

---

Tested on: MCF-12A cells
Assay: In vitro cytotoxicity assessment, alamar blue assay, 24-h exposure
Format: cell-based, human
Conditions: MCF-12A, 24-hour exposure, per one metal centre, mean ± S.D. (N=3)
endpoint-name: IC25 calculated per one metal centre (µM)
Numbers only, in µM.

These recorded examples may help you get a feel for the data.
• O=C([O-])CCCCCCC(=O)[O-].[Cu+2].c1cnc2c(c1)ccc1cccnc12.c1cnc2c(c1)ccc1cccnc12 [Complex 2, [Cu(oda)(phen)2]] = 0.68
• O=C([O-])CCCCCCC(=O)[O-].[Cu+2].[Cu+2].[O-][Cl+3]([O-])([O-])[O-].[O-][Cl+3]([O-])([O-])[O-].c1cnc2c(c1)ccc1cccnc12.c1cnc2c(c1)ccc1cccnc12.c1cnc2c(c1)ccc1cccnc12.c1cnc2c(c1)ccc1cccnc12 [Complex 1, [Cu2(oda)(phen)4](ClO4)2] = 9.72
• O=C([O-])CCCCCCCCCC(=O)[O-].[Ag+].[Ag+].c1cnc2c(c1)ccc1cccnc12.c1cnc2c(c1)ccc1cccnc12.c1cnc2c(c1)ccc1cccnc12 [Complex 5, [Ag2(udda)(phen)3]] = 11.04

Entry under test: "c1cnc2c(c1)ccc1cccnc12" . Its IC25 calculated per one metal centre was 11.14

---

System: MCF-12A cells
Experiment: In vitro cytotoxicity assessment, alamar blue assay, 24-h exposure
Assay type: cell-based, human
Conditions: MCF-12A, 24-h exposure, 25% reduction in metabolic activity, mean ± SD (N = 3)
endpoint-name: Cytotoxic activity IC25 ± SD

Answered cases to consult:
• O=C([O-])CCCCCCC(=O)[O-].[Ag+].[Ag+].c1cnc2c(c1)ccc1cccnc12.c1cnc2c(c1)ccc1cccnc12.c1cnc2c(c1)ccc1cccnc12 [Complex 4, [Ag2(oda)(phen)3]] = 4.91 ± 0.14 µM
• O=C([O-])CCCCCCC(=O)[O-].[Ag+].[Ag+] [Complex 6, [Ag2(oda)]] = 6.43 ± 4.9 µM
• O=C([O-])CCCCCCC(=O)[O-].[Cu+2].c1cnc2c(c1)ccc1cccnc12.c1cnc2c(c1)ccc1cccnc12 [Complex 2, [Cu(oda)(phen)2]] = 0.68 ± 0.13 µM
• O=C([O-])CCCCCCCCCC(=O)[O-].[Ag+].[Ag+].c1cnc2c(c1)ccc1cccnc12.c1cnc2c(c1)ccc1cccnc12.c1cnc2c(c1)ccc1cccnc12 [Complex 5, [Ag2(udda)(phen)3]] = 5.52 ± 0.51 µM

Go through the items and report each one's Cytotoxic activity IC25 ± SD.
1. c1cnc2c(c1)ccc1cccnc12 [Phen, 1,10-Phenanthroline]
2. O.O=C([O-])CCCCCCC(=O)[O-].[Mn+2] [Complex 8, [Mn(oda)]⋅H2O]

11.14 ± 4.39 µM
> 100 µM

---

Tested on: MCF-12A cells
Test: In vitro cytotoxicity assessment, alamar blue assay, 24-h exposure
Format: cell-based, human
Details: MCF-12A, 24-h exposure, 50% reduction in metabolic activity, mean ± SD (N = 3); read-out: Cytotoxic activity IC50 ± SD
endpoint-name: IC50

Lab note: O.O=C([O-])CCCCCCC(=O)[O-].[Mn+2] [Complex 8, [Mn(oda)]⋅H2O] gave IC50 of > 100 µM

---

Test system: MCF-7 cells
Assay: In vitro cytotoxicity assessment, alamar blue assay, 24-h exposure
Type: cell-based, human
endpoint-name: pIC50
Give bare numbers, as −log10 of the molar value.

Lab note: O=C([O-])CCCCCCC(=O)[O-].[Cu+2].[Cu+2].[O-][Cl+3]([O-])([O-])[O-].[O-][Cl+3]([O-])([O-])[O-].c1cnc2c(c1)ccc1cccnc12.c1cnc2c(c1)ccc1cccnc12.c1cnc2c(c1)ccc1cccnc12.c1cnc2c(c1)ccc1cccnc12 [Complex 1, [Cu2(oda)(phen)4](ClO4)2] gave pIC50 of 5.32

---

For each of the compounds below, state its Cytotoxic activity IC25 ± SD.
System: MCF-7 cells
Assay: In vitro cytotoxicity assessment, alamar blue assay, 24-h exposure
Type: cell-based, human
Conditions: MCF-7, 24-h exposure, 25% reduction in metabolic activity, mean ± SD (N = 3)
Answers are plain numbers, in µM.

Illustrative cases are given below, each with its answer.
- O=C([O-])CCCCCCC(=O)[O-].[Ag+].[Ag+] [Complex 6, [Ag2(oda)]]: 13.90
- O=C([O-])CCCCCCC(=O)[O-].[Ag+].[Ag+].c1cnc2c(c1)ccc1cccnc12.c1cnc2c(c1)ccc1cccnc12.c1cnc2c(c1)ccc1cccnc12 [Complex 4, [Ag2(oda)(phen)3]]: 5.52
- c1cnc2c(c1)ccc1cccnc12 [Phen, 1,10-Phenanthroline]: 9.02
- O=C([O-])CCCCCCCCCC(=O)[O-].[Ag+].[Ag+].c1cnc2c(c1)ccc1cccnc12.c1cnc2c(c1)ccc1cccnc12.c1cnc2c(c1)ccc1cccnc12 [Complex 5, [Ag2(udda)(phen)3]]: 5.84

Item O=C([O-])CCCCCCC(=O)[O-].[Cu+2].c1cnc2c(c1)ccc1cccnc12.c1cnc2c(c1)ccc1cccnc12 [Complex 2, [Cu(oda)(phen)2]] was tested on MCF-7 cells; the reported Cytotoxic activity IC25 ± SD is 2.04
